B1: Tudor domain-containing protein 3, residues 554 to 611; numbered along this chain, Q9H7E2 (parent)
chain: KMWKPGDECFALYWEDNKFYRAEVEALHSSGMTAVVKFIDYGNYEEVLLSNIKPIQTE

Variants of: B1
protocol: abundance fitness (aPCA) (normalised: wild type 0, dead -1); higher = more abundant; growth selection in yeast, the domain comes from the species named
test.context: Homo sapiens
metric: abundance fitness
Response field accepts a number only; no unit should be typed.

Below: 10 variants and their reported abundance fitness.
K18H | -0.179
K53Q | -0.12
E58C | -0.062
Y41R | 0.108
N17T | -0.366
E46H | -0.308
L49E | -0.924
W14F | -0.136
I52W | -0.81
C9F | -0.915

Entry G42V has what abundance fitness?
-0.926

Entry K53E has what abundance fitness?
-0.261

Entry S29A has what abundance fitness?
0.114

Entry I39W has what abundance fitness?
-0.361

Entry S30G has what abundance fitness?
-0.132

Entry L49K has what abundance fitness?
-0.774

Entry E23C has what abundance fitness?
-0.034

Entry I39S has what abundance fitness?
-0.111

Entry Y44S has what abundance fitness?
0.135

Entry V35N has what abundance fitness?
-0.211
